- systemName: Mitogen-activated protein kinase 10 (Mus musculus) (UniProt Q61831)
- experimentNotes: JNK3 AlphaScreen Assay (AID 530);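 further: kinase came from lysate of stimulated human HepG2 cells; signal reports phosphorylation of biotinylated GST-cJun 1-79 at Ser73 with 10 µM ATP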
- measurementSetup: JNK3 lysate, c-Jun phosphorylation; series mostly up to 57.1 µM
- Excerpt: NIH Chemical Genomics Center [NCGC] NIH Molecular Libraries Screening Centers Network [MLSCN] The c-jun N-terminal kinase (JNK) family are serine/threonine protein kinases that phosphorylate c-jun, a component of the transcription factor protein-1 (AP-1). […] A homogeneous AlphaScreen is developed to measure the activity of JNK3. […] The phosphorylation of a biotinylated c-jun substrate by JNK3 can be detected with an antibody raised against phosphorylated c-jun. […]
Inconclusive results are not listed. Active and inactive are the calls of the source. The call rests on the fitted dose curve; in most records, active means well fitted curve in either direction with a large enough effect (not every such curve was filed as active); inconclusive means small, poorly fitted or top-dose-only effect, or another doubt; inactive means flat fitted curve, though single readings scatter.
observable: outcome

>>> measuredresult("COCC(=O)N1CCC2(CC1)CCN(c1ccncc1)CC2")
"inactive"
>>> measuredresult("N#Cc1cccc(NC(=O)N2CCCC3(CCN(C(=O)c4ccco4)CC3)C2)c1")
"inactive"
>>> measuredresult("O=c1ccc2cc(O)c(O)cc2o1")
"inactive"
>>> measuredresult("COc1ccc(C(=O)N2CCC3(CCCN(Cc4ccccc4)C3)CC2)cc1")
"inactive"
>>> measuredresult("O=c1c(-c2cccs2)nc2cnc(N3CCNCC3)nc2n1C1CC1")
"inactive"
>>> measuredresult("COc1cccc(Cn2c(=O)c(-c3cn(C)c4ccccc34)nc3cncnc32)c1")
"inactive"
>>> measuredresult("Cc1noc(C)c1C(=O)N1CCC2(CC1)CCN(c1ncccn1)CC2")
"inactive"
>>> measuredresult("COC(=O)N1CCC[C@@]2(CCN(C(=O)Nc3ccc(OC)cc3)C2)C1")
"inactive"
>>> measuredresult("CN(C)C(=O)c1ccc(-c2ccc3ncnc(N4CCNCC4)c3c2)cc1")
"inactive"
>>> measuredresult("COc1ccc(C(=O)N2CCC3(CC2)CCN(c2cccc(-c4ccccc4)c2)CC3)cc1")
"inactive"
>>> measuredresult("C[C@]12CCC3c4ccc(O)cc4CCC3[C@@H]1CCC2=O (stereo partly specified)")
"inactive"

----------
- System: CP250
- experimentNotes: qHTS profiling for inhibitors of Plasmodium falciparum proliferation (AID 504749); further: nearly all actives have a fitted effect of over 60% in size
- measurementSetup: P. falciparum in erythrocytes, SYBR Green DNA, 72 h; series mostly up to 12.8 µM
Records with an inconclusive call do not appear. The source made the active and inactive calls. Calls come from the whole dose curve; as a rule, active = well fitted inhibition curve with a large enough effect; inconclusive = small, poorly fitted or top-dose-only effect; inactive = flat fitted curve, though single readings scatter.
observable: outcome

>>> measuredresult("CCN1C(=O)N[C@@H](c2ccccc2)C1=O")
"inactive"
>>> measuredresult("CC(C)(O/N=C(\\C(=O)N[C@@H]1C(=O)N2C(C(=O)[O-])=C(C[n+]3ccccc3)CS[C@@H]12)c1csc(N)n1)C(=O)O")
"inactive"
>>> measuredresult("CN(C)[C@@H]1C(=O)C(C(N)=O)=C(O)[C@]2(O)C(=O)C3=C(O)c4c(O)ccc(Cl)c4[C@H](O)[C@H]3C[C@@H]12")
"inactive"
>>> measuredresult("CN[C@@H](CC(C)C)C(=O)N[C@@H]1C(=O)N[C@H](CC(N)=O)C(=O)N[C@@H]2C(=O)N[C@H]3C(=O)N[C@H](C(=O)N[C@H](C(=O)O)c4cc(O)cc(O)c4-c4cc3ccc4O)[C@H](O)c3ccc(c(Cl)c3)Oc3cc2cc(c3O[C@H]2O[C@@H](CO)[C@@H](O)[C@@H](O)[C@@H]2O[C@@H]2C[C@](C)(N)[C@H](O)[C@H](C)O2)Oc2ccc(cc2Cl)[C@@H]1O")
"inactive"
>>> measuredresult("CC[C@]1(C)CC(=O)NC1=O")
"inactive"
>>> measuredresult("CC1(C)Oc2ccc(C#N)cc2[C@H](N2CCCC2=O)[C@H]1O")
"inactive"
>>> measuredresult("CC1(C)O[C@@H]2C[C@H]3[C@H]4C[C@H](F)C5=CC(=O)C=C[C@@]5(C)[C@@H]4[C@H](O)C[C@]3(C)[C@]2(C(=O)CO)O1")
"inactive"

Hey, just so you know, these numbers are from PubChem BioAssay (NCATS).
